tested on: MDA-MB-468 breast; experiment: NCI tumour cell line growth inhibition, 48 h
Overview of reported TGI across a group of compounds:
Entry rule: numbers only, all in µM.

COc1ccc(-c2nnc(COc3ccc(NC(=O)Nc4ccc(Cl)c(C(F)(F)F)c4)cc3F)o2)cc1; 8.6

input: Field request: TGI | item: O=C(/C(=C/c1cccc([N+](=O)[O-])c1)c1ccccc1)c1ccccc1
output: 8.8

input: Field request: TGI | item: CCN(CC)CCCC(C)Nc1cnc(C(=O)Nc2cccc3ccc(OC)nc23)cn1 (stereo not given)
output: 3.19

input: Field request: TGI | item: Cc1ccc2c3c(c(=O)[nH]c2c1)C1(C(C#N)=C(N)O3)c2cc(Br)ccc2-c2ccc(Br)cc21
output: 3.55

input: Field request: TGI | item: C=C(C)C1CCC2(C(=O)O)CCC3(C)C(CCC4C5(C)CCC(OC(=O)NCc6ccccc6)C(C)(C)C5CCC43C)C12 (stereo not given)
output: 34.7

---

Overview of reported TGI across a group of compounds:
system: MDA-MB-468 breast; assay: NCI tumour cell line growth inhibition, 48 h
Entry rule: numbers only, all in µM.

Worked cases, TGI given:
C/C(=N\Nc1ccc(Cl)cn1)c1ccccn1; 0.293
CC[C@H](C)[C@H]1O[C@]2(C=C[C@@H]1C)C[C@@H]1C[C@@H](C/C=C(\C)[C@@H](O[C@H]3C[C@H](OC)[C@@H](O[C@H]4C[C@H](OC)[C@@H](NC)[C@H](C)O4)[C@H](C)O3)[C@@H](C)/C=C/C=C3\CO[C@@H]4[C@H](O)C(C)=C[C@@H](C(=O)O1)[C@]34O)O2; 3.17

Next compound, TGI to be filled in.
input: Identify the measured TGI of COc1cc(/C=C2\CCCC3=C2NC(C)=NC3c2cc(OC)c(OC)c(OC)c2)cc(OC)c1OC (centres undefined) for MDA-MB-468 breast.
output: 3.91

---

test system: MDA-MB-468 breast; assay: NCI tumour cell line growth inhibition, 48 h
Property: GI50

input: Field request: GI50 | item: COC(=O)C12C3C4C1C1C2C3C41NC(=O)c1csc([C@@H](C[C@H](C(C)C)N(C)C(=O)[C@@H](NC(=O)[C@H]2CCCCN2C)C2CC2)OC(C)=O)n1 (some centres not stated)
output: 0.0198 µM

input: Field request: GI50 | item: C=C(C)C1CCC2(C(=O)O)CCC3(C)C(CCC4C5(C)CCC(OC(=O)NCc6ccccc6)C(C)(C)C5CCC43C)C12 (configuration not stated)
output: 1.73 µM

input: Field request: GI50 | item: CCCCCN(CCCCC)CC(O)c1ccc(Cl)c2ccccc12 (configuration not stated)
output: 11.1 µM

input: Field request: GI50 | item: CC(C)(O)c1cncc(-c2ccc3ncc(C#N)c(N4CCc5cc(F)c(Cl)cc54)c3c2)c1
output: 11.8 µM

input: Field request: GI50 | item: COc1ccc(OC)c(C(=O)c2oc3ccc(Br)cc3c2N)c1
output: 0.206 µM

input: Field request: GI50 | item: CCOC(=O)c1c(C)nc2c(c1N)/C(=C/c1ccc(OC)cc1)C(=O)N2Cc1ccc(F)cc1
output: 0.194 µM

input: Field request: GI50 | item: Cc1cc(O)c(C(C)(C)C)cc1Sc1cc(C(C)(C)C)c(O)cc1C
output: 2.09 µM

---

test system: MDA-MB-468 breast; test: NCI tumour cell line growth inhibition, 48 h
Overview of reported TGI across a group of molecules:
Entry rule: numbers only, all in µM.

Worked cases, TGI given:
Cc1ccc(NC(=O)c2sc3nc(C)c(C(O)c4ccccc4)cc3c2N)cc1 (stereo not drawn); 50.7
COC(=O)C12C3C4C1C1C2C3C41NC(=O)c1csc([C@@H](C[C@H](C(C)C)N(C)C(=O)[C@@H](NC(=O)[C@H]2CCCCN2C)C2CC2)OC(C)=O)n1 (stereo partly drawn); 31.5
Cc1cc(O)c(C(C)(C)C)cc1Sc1cc(C(C)(C)C)c(O)cc1C; 5.12
CN1CCN(c2ccc(Nc3nc(NCCCNS(=O)(=O)c4ccc(C(F)(F)F)cc4)c4sccc4n3)cc2)CC1; 3.56
CCc1oc2ccccc2c1C(=O)c1cc(I)c(O)c(I)c1; 8.5

input: Field request: TGI | item: COC(=O)c1c(C)[nH]c(/C=C2\N=C(c3ccc[nH]3)C=C2OC)c1C
output: 2.73

input: Field request: TGI | item: C=C[C@H]1C[C@@H]2C[C@@H]3[C@H]4C/C=C\C(=O)NCCCC5NC(=O)C(=C(O)/C=C/[C@@H]4CC(=O)[C@H]3[C@@H]2[C@H]1C)C5=O (stereo partly drawn)
output: 3.09

input: Field request: TGI | item: COc1cc(NS(=O)(=O)c2ccc(-c3cnc(C4CC4)o3)cc2)ccc1F
output: 11.3

Data provenance: PubChem BioAssay (NCI)
